Hey, just so you know, these numbers are from PubChem BioAssay AID434936.

Reported Potency is given for each of the following compounds.
# systemUnderTest: Neuropeptide S receptor (Homo sapiens) (UniProt Q6W5P4)
# Sequence (Q6W5P4 whole entry, looked up): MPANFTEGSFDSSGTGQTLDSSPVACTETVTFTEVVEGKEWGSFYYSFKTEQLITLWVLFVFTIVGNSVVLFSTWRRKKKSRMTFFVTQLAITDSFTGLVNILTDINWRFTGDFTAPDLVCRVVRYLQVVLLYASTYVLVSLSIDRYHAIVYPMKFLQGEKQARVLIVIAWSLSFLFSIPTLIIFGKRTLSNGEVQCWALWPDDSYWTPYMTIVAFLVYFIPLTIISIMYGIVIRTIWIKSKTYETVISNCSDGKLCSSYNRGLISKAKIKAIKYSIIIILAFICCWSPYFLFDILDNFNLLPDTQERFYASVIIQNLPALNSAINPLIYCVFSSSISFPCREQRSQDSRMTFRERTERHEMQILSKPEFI
# assayRemarks: Confirmation Concentration-Response Assay for Antagonists of the Neuropeptide S Receptor: Robust Characterization of cAMP Signal Transduction
# conditionInfo: CHO-NPSR cells, NPS-stimulated cAMP TR-FRET
Inconclusive results are not listed. Activity calls are given as the source filed them. Calls come from the whole dose curve; as a rule, active = well fitted curve in either direction with a large enough effect; inconclusive = small, poorly fitted or top-dose-only effect; inactive = flat fitted curve, though single readings scatter.

- chemSmiles: "Cc1c(P(=S)(c2ccccc2)c2ccccc2)[n+]2ccccc2n1CCCCCc1ccccc1"
  Potency: "705 nM (active)"
- chemSmiles: "Cc1nc2ccccn2c1P(=S)(c1ccccc1)c1ccccc1"
  Potency: "17700 nM (active)"
- chemSmiles: "Cc1c(P(=S)(c2ccccc2)c2ccccc2)[n+]2ccccc2n1CCCCc1ccccc1"
  Potency: "1.1 nM (active)"
- chemSmiles: "Cc1c(P(=S)(c2ccccc2)c2ccccc2)[n+]2ccccc2n1C"
  Potency: "1670 nM (active)"
- chemSmiles: "Cc1c(P(=S)(c2ccccc2)c2ccccc2)[n+]2ccccc2n1CCc1ccccc1"
  Potency: "2100 nM (active)"
